Target: human ether-à-go-go-related gene (hERG) potassium channel (human, UniProt Q12809);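 note: peak tail current of the secondary pulse compared with the same well before compound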
Sequence (Q12809 whole entry, looked up): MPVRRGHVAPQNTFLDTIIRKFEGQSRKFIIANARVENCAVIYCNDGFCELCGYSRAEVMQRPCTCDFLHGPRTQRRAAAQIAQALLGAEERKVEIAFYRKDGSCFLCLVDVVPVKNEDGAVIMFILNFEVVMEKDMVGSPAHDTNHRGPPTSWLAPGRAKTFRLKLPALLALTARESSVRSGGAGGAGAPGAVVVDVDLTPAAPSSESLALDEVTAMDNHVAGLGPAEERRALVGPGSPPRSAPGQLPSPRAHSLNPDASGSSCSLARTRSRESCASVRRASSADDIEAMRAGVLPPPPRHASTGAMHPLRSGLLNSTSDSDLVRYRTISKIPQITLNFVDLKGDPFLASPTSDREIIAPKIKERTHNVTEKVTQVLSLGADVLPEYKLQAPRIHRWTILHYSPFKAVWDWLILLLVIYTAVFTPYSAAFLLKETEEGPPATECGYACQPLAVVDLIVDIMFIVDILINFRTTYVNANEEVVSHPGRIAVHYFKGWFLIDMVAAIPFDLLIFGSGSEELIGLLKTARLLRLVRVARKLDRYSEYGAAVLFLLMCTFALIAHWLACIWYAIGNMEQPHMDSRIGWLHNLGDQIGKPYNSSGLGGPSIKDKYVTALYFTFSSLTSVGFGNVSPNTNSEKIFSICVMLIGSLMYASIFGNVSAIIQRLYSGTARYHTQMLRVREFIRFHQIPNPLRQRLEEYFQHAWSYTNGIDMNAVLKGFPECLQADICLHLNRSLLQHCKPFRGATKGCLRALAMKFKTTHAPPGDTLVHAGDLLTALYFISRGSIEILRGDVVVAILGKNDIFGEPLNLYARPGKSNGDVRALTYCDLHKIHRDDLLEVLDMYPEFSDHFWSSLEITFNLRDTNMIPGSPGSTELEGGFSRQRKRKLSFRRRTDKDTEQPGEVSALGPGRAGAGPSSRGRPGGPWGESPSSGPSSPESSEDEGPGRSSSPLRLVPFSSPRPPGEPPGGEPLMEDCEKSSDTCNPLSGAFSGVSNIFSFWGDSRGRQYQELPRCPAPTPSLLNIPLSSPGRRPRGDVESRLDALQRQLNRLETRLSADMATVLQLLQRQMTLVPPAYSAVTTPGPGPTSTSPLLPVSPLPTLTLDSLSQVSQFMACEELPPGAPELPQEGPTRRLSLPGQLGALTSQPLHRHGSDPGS
Experiment: primary screen, population patch clamp on CHO cells stably expressing hERG; higher = less effect of the substance
Method: Briefly, Chinese hamster ovary (CHO) cells stably expressing the hERG channel were dislodged from tissue culture flasks and dispensed into PPC plates. […] During the recording, background leak currents were estimated by a 100 ms step to -80 mV from an initial holding potential of -70 mV and subtracted from the subsequent current measurement. The campaign was conducted in two phases using slight differences in recording protocol. […]
Among all 310,000 compounds or so, about 14,000 (4.5%) showed an effect of 50% or more. Effects have a minus sign here. Only a selection was taken, and strong results are over-represented in it overall.
readout.label: hERG current change (%, negative = inhibition) at 10uM (%)

INSERT INTO results (compound, measured_value) VALUES
  ('O=c1c2cc(NC(=S)NCc3cccnc3)ccc2nc2n1CCCCC2', -10.1),
  ('CN(Cc1ccccc1)C(=S)Nc1ccc2nc3n(c(=O)c2c1)CCCCC3', -78.1),
  ('CCCCNC(=S)Nc1ccc2nc3n(c(=O)c2c1)CCCCC3', -43.6),
  ('CCCCN(C)C(=S)Nc1ccc2nc3n(c(=O)c2c1)CCCCC3', -81.2),
  ('CC1CC2c3cccc(C(=O)O)c3C(=O)N2c2ccc(Cl)cc21 (stereo not shown)', 5.97),
  ('O=C(Nc1ccc(Cl)cc1)N1CCN(Cc2ccc3c(c2)OCO3)CC1', -27.6),
  ('CCCN(CCC)CCCNC(=S)Nc1ccc2nc3n(c(=O)c2c1)CCCCC3', 6.36),
  ('CC(=O)Nc1cc(NC(C)=O)cc(-c2nc3ccccc3[nH]2)c1', 3.84),
  ('c1ccc(Cc2noc(CN3CCN(Cc4ccc5c(c4)OCO5)CC3)n2)cc1', -28.1),
  ('Cc1ccc(Nc2nc(N)nc(CN3CCN(Cc4ccc5c(c4)OCO5)CC3)n2)cc1', -73.3);

* * *

Biological target: human ether-à-go-go-related gene (hERG) potassium channel (human, UniProt Q12809);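 note: peak tail current of the secondary pulse compared with the same well before compound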
Assay: primary screen, population patch clamp on CHO cells stably expressing hERG; higher = less effect of the substance
In all, about 310,000 compounds went through this assay and about 14,000 (4.5%) showed an effect of 50% or more. The effect is printed as a negative number. This is one part of a sample in which strong results are shown more often than they occur.
hERG current change (%, negative = inhibition) at 10uM for assorted molecules
readout.label: hERG current change (%, negative = inhibition) at 10uM (%)

INSERT INTO measurements (molecule, measured_value) VALUES
  ('Cc1cccc(/C(N)=N/OC(=O)COc2ccc(Cl)c(C)c2)c1', 13.2),
  ('CCN(CC)C1=NC=CC(c2ccccc2)=CC1C (stereo not drawn)', -55.1),
  ('CCN(CC)c1nc(C(N)=O)cc(-c2ccccc2)n1', -0.608),
  ('COc1ccc(S(=O)(=O)N2CCOC23CCN(S(=O)(=O)c2cc(C)ccc2OC)CC3)cc1', 26.8),
  ('CCN(CC)c1ccccc1', 12.7),
  ('Cc1ccc(NC(=S)Nc2ccc(OC(F)F)c(Cl)c2)cc1Cl', 16.5);

* * *

Biological target: human ether-à-go-go-related gene (hERG) potassium channel (human);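 note: peak tail current of the secondary pulse compared with the same well before compound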
Test: primary screen, population patch clamp on CHO cells stably expressing hERG; higher = less effect of the substance
The whole screen tested about 310,000 compounds, of which about 14,000 (4.5%) showed an effect of 50% or more. The effect is printed as a negative number. The sample as a whole holds a higher share of strong results than the screen did.
hERG current change (%, negative = inhibition) at 10uM for assorted compounds
readout.label: hERG current change (%, negative = inhibition) at 10uM (%)

INSERT INTO results (compound, measured_value) VALUES
  ('CCCCc1ccc(S(=O)(=O)NC2CCS(=O)(=O)C2)cc1 (stereo not shown)', -2.26),
  ('O=C(COc1ccc(Br)cc1)N1CCN(C2CCCC2)CC1', -63.6),
  ('O=C(CCC(=O)Nc1ccccc1)N/N=C/c1ccc2c(c1)OCO2', 28.7),
  ('C/C(Cn1cnc([N+](=O)[O-])n1)=N\NC(=O)c1cccc(F)c1', 6.43),
  ('COc1ccc(OCC(=O)N2CCN(C(=O)COc3ccc(Br)cc3)CC2)cc1', -71.9),
  ('Nc1nc(NCCOCCO)nc(NCc2ccccc2)c1[N+](=O)[O-]', -1.49),
  ('Cn1c(SCC(=O)Nc2ccc(Cl)cc2F)nnc1-c1ccco1', -59.4),
  ('COc1ccc(-c2cc(-c3ccc(OC)cc3)c(C#N)c(SC)n2)cc1', 5.38),
  ('Cn1c(SCC(=O)c2cccs2)nnc1-c1ccco1', 11.8),
  ('Cc1ccc2c(c1)c1c(n2CC(O)CN2CCOCC2)CCCC1.Cl (stereo not shown)', 9.32),
  ('Cc1nc2sc(C(c3cccc(F)c3)N3CCCCC3)c(O)n2n1 (stereo not shown)', 4.79),
  ('COc1ccc(C(=O)/C=C/Nc2cc(C)on2)cc1', 3.9),
  ('CC(=O)N1CCN(C(=O)COc2ccc(Br)cc2)CC1', -17.8),
  ('O=C(CCC1CCCC1)N1CCN(C(=O)COc2ccccc2)CC1', -28.8),
  ('Cn1c(SCC(=O)Nc2ccccc2O)nnc1-c1ccco1', -27.4),
  ('Cc1cc(C(=O)Nc2nc3ccc(Cl)cc3s2)nn1C', 5.89),
  ('Cc1ccc2c(c1)c1c(n2CC(O)CN2CCCCCC2)CCCC1.Cl (stereo not shown)', -65.6),
  ('Cc1cccc(OCC(=O)N2CCN(C(=O)CCC3CCCC3)CC2)c1', -37.3),
  ('O=C(O)C(=O)O.c1ccc(CNC2=NCCCC2)cc1', 1.76),
  ('CCOC(=O)N1CCN(C(=O)COc2ccc(Br)cc2)CC1', -39.1),
  ('CCn1c(SCC(=O)c2cccs2)nnc1-c1ccco1', -2.68),
  ('CC(C)Cn1c(SCC(=O)c2ccc(Cl)s2)nnc1-c1ccco1', -76.7);

These entries and their values trace back to paper PMC4336329.
